assay: Thermostability (Tm, Tonset, Tagg) by Nanotemper DSF; format: physicochemical; design: key: temperatures in °C; conditions: Average of two replicates; anti-Fel d1 VHH
Reported Tagg ø (mean) by item:
PROPERTY: Tagg ø (mean)

molecule="SDAB22110-4-3-H02: anti-Fel d1 VHH clone, SEQ ID NO: 57 (protein) VHH: QLQLVESGGGLVQPGGSLRLSCEASGFTFKYYTMSWYRQAPGKERELVATITNGDRTNYADSVKGRFTISRDNAKNTLYLQMNSLKPYDTAVYYCNRHLPLLQIWGQGTQVTVSS" property="Tagg ø (mean)" assay_result=42.29
molecule="SDAB22110-1-1-B9-1: anti-Fel d1 VHH clone, SEQ ID NO: 50 (protein) VHH: DVQLVESGGGWVQPGGSLRLSCAASGFTFTSYALSWVRQAPGKGLEWVSLADARGTSTTYADSVKGRFTISKDNPRNTLYLLMNSLKPEDTAVYYCTKGFDGNWYPDYDYWGQGTQVTVSS" property="Tagg ø (mean)" assay_result=41.73
molecule="DAB22110-1-1-C3 (protein) VHH: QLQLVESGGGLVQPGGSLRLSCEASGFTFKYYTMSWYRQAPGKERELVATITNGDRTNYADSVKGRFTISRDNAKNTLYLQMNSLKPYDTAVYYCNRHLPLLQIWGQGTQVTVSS" property="Tagg ø (mean)" assay_result=58.93
